Below: a set of entries, each annotated with reported percent binding.
- Target of assay: T1, human B7-1 K139D on cells (Homo sapiens, UniProt P33681 35-280)
- T1 construct: mCherry-tagged point mutant; also called LYS139ASP; LYS139 ASP
- T1 chain: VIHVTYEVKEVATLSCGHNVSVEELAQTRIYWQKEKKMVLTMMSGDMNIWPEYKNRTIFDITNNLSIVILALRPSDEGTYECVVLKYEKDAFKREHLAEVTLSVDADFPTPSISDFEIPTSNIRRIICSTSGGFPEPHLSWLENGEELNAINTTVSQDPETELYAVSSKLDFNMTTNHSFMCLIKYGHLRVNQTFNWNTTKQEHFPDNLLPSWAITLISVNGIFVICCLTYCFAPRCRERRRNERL
- Assay overview: cell-cell binding, flow cytometry; percent of the wild-type pair
State the answer as a number, implicitly in %.

Here is how some binders turned out for percent binding.
>>> reported("human p75NTR P150H on cells (receptor, Fluorescent-tagged point mutant) KEACPTGLYTHSGECCKACNLGEGVAQPCGANQTVCEPCLDSVTFSDVVSATEPCKPCTECVGLQSMSAPCVEADDAVCRCAYGYYQDETTGRCEACRVCEAGSGLVFSCQDKQNTVCEECHDGTYSDEANHVDPCLPCTVCEDTERQLRECTRWADAECEEIPGRWITRSTPPEGSDSTAPSTQEPEAPPEQDLIASTVAGVVTTVMGSSQPVVTRGTTDNLIPVYCSILAAVVVGLVAYIAFKRWNSCKQNKQGANSRPVNQTPPPEGEKLHSDSGISVDSQSLHDQQPHTQTASGQALKGDGGLYSSLPPAKREEVEKLLNGSAGDTWRHLAGELGYQPEHIDSFTHEACPVRALLASWATQDSATLDALLAALRRIQRADLVESLCSESTATSPV")
14
>>> reported("human p75NTR L165H on cells (receptor, Fluorescent-tagged point mutant; also called LEU165H*) KEACPTGLYTHSGECCKACNLGEGVAQPCGANQTVCEPCLDSVTFSDVVSATEPCKPCTECVGLQSMSAPCVEADDAVCRCAYGYYQDETTGRCEACRVCEAGSGLVFSCQDKQNTVCEECPDGTYSDEANHVDPCHPCTVCEDTERQLRECTRWADAECEEIPGRWITRSTPPEGSDSTAPSTQEPEAPPEQDLIASTVAGVVTTVMGSSQPVVTRGTTDNLIPVYCSILAAVVVGLVAYIAFKRWNSCKQNKQGANSRPVNQTPPPEGEKLHSDSGISVDSQSLHDQQPHTQTASGQALKGDGGLYSSLPPAKREEVEKLLNGSAGDTWRHLAGELGYQPEHIDSFTHEACPVRALLASWATQDSATLDALLAALRRIQRADLVESLCSESTATSPV")
25
>>> reported("human p75NTR F136H on cells (receptor, Fluorescent-tagged point mutant) KEACPTGLYTHSGECCKACNLGEGVAQPCGANQTVCEPCLDSVTFSDVVSATEPCKPCTECVGLQSMSAPCVEADDAVCRCAYGYYQDETTGRCEACRVCEAGSGLVHSCQDKQNTVCEECPDGTYSDEANHVDPCLPCTVCEDTERQLRECTRWADAECEEIPGRWITRSTPPEGSDSTAPSTQEPEAPPEQDLIASTVAGVVTTVMGSSQPVVTRGTTDNLIPVYCSILAAVVVGLVAYIAFKRWNSCKQNKQGANSRPVNQTPPPEGEKLHSDSGISVDSQSLHDQQPHTQTASGQALKGDGGLYSSLPPAKREEVEKLLNGSAGDTWRHLAGELGYQPEHIDSFTHEACPVRALLASWATQDSATLDALLAALRRIQRADLVESLCSESTATSPV")
13

GET /value?item= human p75NTR F136K on cells (receptor, Fluorescent-tagged point mutant) KEACPTGLYTHSGECCKACNLGEGVAQPCGANQTVCEPCLDSVTFSDVVSATEPCKPCTECVGLQSMSAPCVEADDAVCRCAYGYYQDETTGRCEACRVCEAGSGLVKSCQDKQNTVCEECPDGTYSDEANHVDPCLPCTVCEDTERQLRECTRWADAECEEIPGRWITRSTPPEGSDSTAPSTQEPEAPPEQDLIASTVAGVVTTVMGSSQPVVTRGTTDNLIPVYCSILAAVVVGLVAYIAFKRWNSCKQNKQGANSRPVNQTPPPEGEKLHSDSGISVDSQSLHDQQPHTQTASGQALKGDGGLYSSLPPAKREEVEKLLNGSAGDTWRHLAGELGYQPEHIDSFTHEACPVRALLASWATQDSATLDALLAALRRIQRADLVESLCSESTATSPV &field=percent binding returns 18
